# Target desc: Avi-KRAS G12D (1-169) GppNHp/RAF1 RBD-3×FLAG (52-151) (Homo sapiens, UniProt P01116, G12D)
# Construct: Avi-KRAS G12D (1-169) GppNHp
# Sequence (P01116 1-169 isoform P01116-2 G12D limits assumed): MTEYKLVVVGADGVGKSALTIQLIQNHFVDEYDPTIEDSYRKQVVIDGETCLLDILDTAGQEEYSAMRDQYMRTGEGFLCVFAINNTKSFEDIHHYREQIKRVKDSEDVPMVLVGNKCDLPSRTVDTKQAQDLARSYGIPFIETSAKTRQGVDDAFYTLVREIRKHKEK
# Procedure text: HTRF Raf1-KRAS G12D-GppNHp disruption assay
# Condition description: 1 h incubation
Known IC50 of a selection of compounds

The examples below pair each entry with its known result.
Nc1nc2c(-c3c(C(F)(F)F)cc4c(N5CC[C@H]6CCNC[C@H]65)nc(OCC56CCCN5CCC6)nc4c3F)ccc(F)c2s1	1 to 10 µM
Nc1nc2c(-c3c(C4CCC4)cc4c(N5CCNCC5)ncnc4c3F)ccc(F)c2s1	10 to 30 µM
CN1CCC[C@H]1COc1nc(NC2CCCNC2)c2cc(Cl)c(-c3ccc(F)c4sc(N)nc34)c(F)c2n1 (stereo partly shown)	1 to 10 µM
CN1CCC[C@H]1COc1nc(NCCN)c2cc(Cl)c(-c3cccc4nc(N)n(C)c34)c(F)c2n1	10 to 30 µM

QUERY: Give IC50 for CN1C[C@H](F)C[C@H]1COc1nc(NC2CN(C(=O)CN)C2)c2cc(-c3ccoc3)c(-c3ccc(F)c4sc(N)nc34)c(F)c2n1 tested on Avi-KRAS G12D (1-169) GppNHp/RAF1 RBD-3×FLAG (52-151) (Homo sapiens, UniProt P01116, G12D).
RESULT: 1 to 10 µM

QUERY: Give IC50 for Nc1nc2c(-c3c(C(F)(F)F)cc4c(NC5CC6CC[C@H]5N6)nc(OCC56CCCN5CCC6)nc4c3F)ccc(F)c2s1 (stereo partly shown) [Compound 265] tested on Avi-KRAS G12D (1-169) GppNHp/RAF1 RBD-3×FLAG (52-151) (Homo sapiens, UniProt P01116, G12D).
RESULT: 0.1 to 1 µM

QUERY: Give IC50 for Nc1nc2c(-c3c(C(F)(F)F)cc4c(NC5C[C@H]6CCC5N6)nc(OCC56CCCN5CCC6)nc4c3F)ccc(F)c2s1 (stereo partly shown) tested on Avi-KRAS G12D (1-169) GppNHp/RAF1 RBD-3×FLAG (52-151) (Homo sapiens, UniProt P01116, G12D).
RESULT: 0.1 to 1 µM

QUERY: Give IC50 for CN1CCC[C@H]1COc1nc(N[C@H]2C[C@H](N)C2)c2cc(Cl)c(-c3ccc(F)c4sc(N)nc34)c(F)c2n1 (atropisomer, axis not shown) tested on Avi-KRAS G12D (1-169) GppNHp/RAF1 RBD-3×FLAG (52-151) (Homo sapiens, UniProt P01116, G12D).
RESULT: 1 to 10 µM

QUERY: Give IC50 for CN1CCC[C@H]1COc1nc(N2CC3(CCN3)C2)c2cc(Cl)c(-c3ccc(F)c4sc(N)nc34)c(F)c2n1 tested on Avi-KRAS G12D (1-169) GppNHp/RAF1 RBD-3×FLAG (52-151) (Homo sapiens, UniProt P01116, G12D).
RESULT: 10 to 30 µM

QUERY: Give IC50 for Nc1nc2c(-c3c(Cl)cc4c(N5CC6CCC(C5)N6)nc(OCC56CCCN5CCC6)nc4c3F)ccc(F)c2s1 tested on Avi-KRAS G12D (1-169) GppNHp/RAF1 RBD-3×FLAG (52-151) (Homo sapiens, UniProt P01116, G12D).
RESULT: 0.1 to 1 µM

QUERY: Give IC50 for Nc1nc2c(-c3c(C(F)(F)F)cc4c(N5CC[C@@H]6NCC[C@@H]65)nc(OCC56CCCN5CCC6)nc4c3F)ccc(F)c2s1 tested on Avi-KRAS G12D (1-169) GppNHp/RAF1 RBD-3×FLAG (52-151) (Homo sapiens, UniProt P01116, G12D).
RESULT: 1 to 10 µM

Origin of values: patent US20240246954A1
